System: A549
Assay: Euclidean distance of Cell Painting phenotypic profile (signed KS, 77 features) to DMSO centroid (dimensionless distance); 5 or 10 uM (library dependent); higher = stronger phenotypic change vs DMSO (phenoactivity)
Conditions: 48 h
Where a name gives a salt, the structure may show the parent alone.
Is Euclidean distance at least 1? Then yes (1). If not, no (0).

Hi team, for CC[C@@]1(O)C(=O)OCc2c1cc1n(c2=O)Cc2cc3c(CN(C)C)c(O)ccc3nc2-1 , is the recorded Euclidean distance at or above 1?
yes (1)

# repeat for Cc1nccn1CC1CCc2c(c3ccccc3n2C)C1=O (stereo not given) [Ondansetron Hydrochloride Dihydrate]
no (0)

# repeat for NS(=O)(=O)c1ccc(NC(=O)Nc2ccc(F)cc2)cc1
yes (1)

# repeat for Cc1[nH]c(/C=C2\C(=O)Nc3ccccc32)c(C)c1CCC(=O)O [TSU-68 (SU6668. Orantinib)]
no (0)

# repeat for CNC(=O)CN1CCC(Oc2cc3c(Nc4cccc(Cl)c4F)ncnc3cc2OC)CC1
yes (1)

# repeat for Nc1ncn([C@@H]2O[C@H](CO)[C@@H](O)[C@H]2O)c(=O)n1
yes (1)

# repeat for Cc1ccc(O)c([C@H](CCN(C(C)C)C(C)C)c2ccccc2)c1 [Tolterodine tartrate]
no (0)

# repeat for O=C(O)Cn1nnc(-c2cc(N3CCC(Oc4cc(F)ccc4Br)CC3)no2)n1
yes (1)

# repeat for COc1ccc([C@H]2CNC(=O)C2)cc1OC1CCCC1 [S- (+)-Rolipram]
yes (1)

# repeat for COc1ccc(-c2ccc3c(N4CCOC[C@@H]4C)nc(N4CCOC[C@@H]4C)nc3n2)cc1CO
yes (1)

# repeat for CN(C(=O)c1ccc(F)cc1C(F)(F)F)C1CCN(c2nnc(-c3ccnn3C)c3ccccc23)CC1
no (0)

# repeat for Nc1nc(NC2CC2)c2ncn([C@H]3C=C[C@@H](CO)C3)c2n1 [Abacavir sulfate]
yes (1)

# repeat for O=C(/C=C/c1ccc(O)c(O)c1)O[C@@H]1C[C@](O)(C(=O)O)C[C@@H](O)[C@H]1O
yes (1)

# repeat for NS(=O)(=O)c1cc2c(cc1Cl)NCNS2(=O)=O [Hydrochlorothiazide]
yes (1)

# repeat for Cc1[nH]c(=O)c(C#N)cc1-c1ccncc1
no (0)

# repeat for Cc1c(-c2ccccc2)oc2c(C(=O)OCCN3CCCCC3)cccc2c1=O [Flavoxate HCl]
yes (1)

# repeat for O=C1CC[C@@H](C(=O)N2CSC[C@H]2C(=O)O)N1
no (0)

# repeat for C[N+](C)(C)CCOC(N)=O
yes (1)

# repeat for COc1ccc(CCc2nc3cc(-c4c(C)noc4C)ccc3n2C[C@H](C)N2CCOCC2)cc1Cl
yes (1)

# repeat for CC(=O)O/N=C1\C(=O)N(Cc2cc(Cl)ccc2Cl)c2ccc(Cl)cc21
no (0)

# repeat for COc1ccc(CN2CCN(C(c3ccc(F)cc3)c3ccc(F)cc3)CC2)c(OC)c1OC [Lomerizine 2HCl]
yes (1)

# repeat for CNC(=O)c1ccccc1Nc1nc(Nc2ccc(N3CCOCC3)cc2OC)ncc1Cl
yes (1)

# repeat for CCN[C@H]1CN(CCCOC)S(=O)(=O)c2sc(S(N)(=O)=O)cc21 [Brinzolamide]
yes (1)

# repeat for CN(C)CCOC(=O)C(c1ccccc1)C1(O)CCCC1 (stereo not given) [Cyclopentolate Hydrochloride]
no (0)

# repeat for C1CCN2C[C@@H]3C[C@@H](CN4CCCC[C@@H]34)[C@H]2C1 [(-)-Sparteine Sulfate]
no (0)

# repeat for CC[C@]12CCCN3CCc4c(n(c5ccccc45)[C@@](O)(C(=O)OC)C1)[C@@H]32
yes (1)

# repeat for CCCCc1nc2cc(/C=C/C(=O)NO)ccc2n1CCN(CC)CC [Pracinostat (SB939)]
yes (1)

# repeat for COC(=O)N[C@@H](C)CNc1nccc(-c2cn(C(C)C)nc2-c2cc(Cl)cc(NS(C)(=O)=O)c2F)n1
yes (1)

# repeat for Cc1nc(N(C)C(=O)Cc2ccc(-c3ccccn3)cc2)sc1S(N)(=O)=O
no (0)

# repeat for C=CC(=O)N1CCC([C@@H]2CCNc3c(C(N)=O)c(-c4ccc(Oc5ccccc5)cc4)nn32)CC1
yes (1)

# repeat for c1cnc(N2CCN(Cc3ccc4c(c3)OCO4)CC2)nc1
no (0)

###

Tested on: OVCAR4
Assay: Euclidean distance of Cell Painting phenotypic profile (signed KS, 77 features) to DMSO centroid (dimensionless distance); 5 or 10 uM (library dependent); higher = stronger phenotypic change vs DMSO (phenoactivity)
Details: 48 h
Where a name gives a salt, the structure may show the parent alone.
Reported metric: Euclidean distance
Field format: numeric only.

Which measured Euclidean distance belongs to O=c1c(-c2ccc(O)cc2)coc2cc(O[C@@H]3O[C@H](CO)[C@@H](O)[C@H](O)[C@H]3O)ccc12 , tested on OVCAR4?
1.17

# repeat for COc1ccc(CC(C)(C)NC[C@H](O)c2cc(O)cc3c2OCC(=O)N3)cc1 [Olodaterol hydrochloride]
1.1

# repeat for CC1(C)CCC(CN2CCN(c3ccc(C(=O)NS(=O)(=O)c4ccc(NCC5CCOCC5)c([N+](=O)[O-])c4)c(Oc4cnc5[nH]ccc5c4)c3)CC2)=C(c2ccc(Cl)cc2)C1
1.16

# repeat for Cc1cc(Nc2cc(N)ncn2)c(=O)n2c1C(=O)NC21CCCCC1
1.18

# repeat for COC(=O)Nc1nc2cc(Sc3ccccc3)ccc2[nH]1
2.83

# repeat for OCCOCCN1CCN(C(c2ccccc2)c2ccc(Cl)cc2)CC1 (configuration not stated) [Hydroxyzine 2HCl]
1.17

# repeat for Cc1ncc(CO)c(CO)c1O [Pyridoxine HCl]
1.11

# repeat for COc1ccc(NS(=O)(=O)c2ccc(N)cc2)nn1
1.05

# repeat for CC(=O)O[C@]1(C(C)=O)CC[C@H]2[C@@H]3C[C@H](C)C4=CC(=O)CC[C@]4(C)[C@H]3CC[C@@]21C [Medroxyprogesterone acetate]
1.06

# repeat for Cc1[nH]c(=O)c(C#N)cc1-c1ccc2nccn2c1
1.11

# repeat for CC1=Nc2ccc(Cl)cc2S(=O)(=O)N1 [Diazoxide]
1.25

# repeat for COCCCOc1ccnc(C[S+]([O-])c2nc3ccccc3[nH]2)c1C (configuration not stated)
0.928

# repeat for C#CCN(C)Cc1ccccc1 [Pargyline hydrochloride]
1.43

# repeat for CCCCC(=O)O[C@]1(C(=O)CO)[C@@H](C)C[C@H]2[C@@H]3CCC4=CC(=O)C=C[C@]4(C)[C@@]3(F)[C@@H](O)C[C@@]21C [Betamethasone Valerate]
2.13

# repeat for Cc1ncc([N+](=O)[O-])n1CC(O)CCl (configuration not stated)
0.676

# repeat for C[C@H](NC(=O)[C@@H](Cc1ccc2ccccc2c1)NC(=O)[C@@H](C)N)C(=O)N[C@@H](Cc1c[nH]c2ccccc12)C(=O)N[C@H](Cc1ccccc1)C(=O)N[C@@H](CCCCN)C(N)=O
1.29

# repeat for CCCCCCCCCCCC(=O)O
0.985

# repeat for COc1ccc(C2CC(=O)c3c(O)cc(OC4OC(COC5OC(C)C(O)C(O)C5O)C(O)C(O)C4O)cc3O2)cc1OC (configuration not stated)
1.25

# repeat for Cc1cc(C)cc(NC(=O)Cc2ccc(OC(C)(C)C(=O)O)cc2)c1 [Efaproxiral Sodium]
0.981

# repeat for Cc1ccc(C(=O)N(CCCN)[C@@H](c2nc3cc(Cl)ccc3c(=O)n2Cc2ccccc2)C(C)C)cc1
3.78

# repeat for CO[C@@]1(NC(=O)C(C(=O)O)c2ccc(O)cc2)C(=O)N2C(C(=O)O)=C(CSc3nnnn3C)CO[C@@H]21 (some centres not stated) [Latamoxef sodium]
1.39

# repeat for O=C(O[C@@H]1Cc2c(O)cc(O)cc2O[C@@H]1c1ccc(O)c(O)c1)c1cc(O)c(O)c(O)c1 [(-)-Epicatechin gallate]
0.782

# repeat for CC(C)(C)NCC(O)c1ccc(O)c(CO)c1 (configuration not stated) [Salbutamol]
0.709

# repeat for CO/N=C(\C(=O)N[C@@H]1C(=O)N2C(C(=O)O)=C(CSc3nc(=O)c(O)nn3C)CS[C@H]12)c1csc(N)n1 [Ceftriaxone Sodium Trihydrate]
0.926

# repeat for Cc1cc2c(s1)Nc1ccccc1N=C2N1CCN(C)CC1
1.61

# repeat for CO[C@@H](C)Cn1c(=O)n(C)c2cnc3ccc(-c4cncc(C(C)(C)O)c4)cc3c21
3.29

# repeat for Cc1onc(-c2ccccc2)c1-c1ccc(S(N)(=O)=O)cc1
1.58

# repeat for CNC(=O)c1cnn(-c2nc(N)c3ncn([C@@H]4O[C@H](CO)[C@@H](O)[C@H]4O)c3n2)c1
0.995

# repeat for O=C(c1ccc(NS(=O)(=O)c2cccc3cccnc23)cc1)N1CCN(CC2CC2)CC1
1.47

# repeat for CC(=O)Oc1cc(C(C)C)c(OCCN(C)C)cc1C [Moxisylyte hydrochloride]
0.608

# repeat for CC(C)OC(=O)CCC/C=C\C[C@@H]1[C@@H](CC[C@@H](O)CCc2ccccc2)[C@H](O)C[C@@H]1O
1.15

# repeat for O=C(Nc1cccc(C(F)(F)F)c1)Nc1cc(S(=O)(=O)NC2CC2)ccc1-c1ccsc1
1.01
